# target_entity: HLA-A*24 (human)
# assay_explanation: UV-exchange ELISA, exchange yield grade
reported_endpoint: peptide exchange yield

Task item: Entry under review: QYLDVLHAL [… (SEQ ID NO: 276)] . Reported peptide exchange yield?
Reply: > 75%

Task item: Entry VYVGDALLHAI [… (SEQ ID NO: 285)] : reported peptide exchange yield = ?
Reply: 50 to 75%

Task item: Given SYSEIKDFL [… (SEQ ID NO: 220)] , state its recorded peptide exchange yield.
Reply: > 75%
